pEC50 by entry:
system: Scleraxis (Scx) gene transcriptional activation in TT-D6 Scx-luciferase (ScxL) cell line; assay: SCX-LUC in vitro assay (Scx-luciferase reporter); type: cell-based; settings: Mus musculus; assays described above (Scx-Luc and ex vivo); read-out: EC50 in the assays described above
pEC50: −log10 of the molar value.
readout name: pEC50

# compound, assay value
rows = [
    ("Cc1cc(S(=O)(=O)NC2CCN(C)CC2)ccc1-c1ccc2[nH]nc(N)c2c1C", "< 5.00"),
    ("Cc1cc(S(=O)(=O)N2C[C@H](O)[C@@H](F)C2)ccc1-c1ccc2[nH]nc(N)c2c1C", "< 5.00"),
]

###

system: Scleraxis (Scx) gene transcriptional activation in TT-D6 Scx-luciferase (ScxL) cell line; experiment: SCX-LUC in vitro assay (Scx-luciferase reporter); type: cell-based; conditions: Mus musculus, 96 h; Table 3; four days; read-out: Scx-Luc (EC50 μM)
Lab note: compare EC50 with 0.7 µM, writing yes (1) if less and no (0) if equal or more.

# molecule, group label
rows = [
    ("Cc1cc(S(=O)(=O)N2CC[C@H]2CO)ccc1-c1ccc2[nH]nc(N)c2c1C", "no (0)"),
    ("Nc1n[nH]c2ccc(-c3ccc(S(=O)(=O)N4CC[C@@H](O)C4)cc3F)c(Cl)c12", "no (0)"),
    ("Cc1cc(S(=O)(=O)N2CC(F)(F)C[C@@H]2CO)ccc1-c1ccc2[nH]nc(N)c2c1C", "yes (1)"),
    ("COc1c(-c2ccc(S(=O)(=O)NC3CC(O)(C(F)(F)F)C3)cc2C)ccc2[nH]nc(N)c12 (centres unmarked)", "yes (1)"),
    ("Cc1cc(-c2ccc3[nH]nc(N)c3c2C)ccc1S(=O)(=O)N1CC(F)(F)C[C@H]1CO", "no (0)"),
    ("Cc1cc(S(=O)(=O)N[C@H]2C[C@@H](O)C2)ccc1-c1ccc2[nH]nc(N)c2c1C", "no (0)"),
    ("Cc1cc(S(=O)(=O)N[C@@H]2CC[C@H](O)C2)ccc1-c1ccc2[nH]nc(N)c2c1C", "no (0)"),
]

###

test system: Scleraxis (Scx) gene transcriptional activation in TT-D6 Scx-luciferase (ScxL) cell line; test: SCX-LUC in vitro assay (Scx-luciferase reporter); format: cell-based; settings: Mus musculus, 96 h; Table 3; four days; read-out: Scx-Luc (EC50 μM)

# compound, EC50 (µM)
measured = [
    ("Cc1cc(S(=O)(=O)N[C@@H]2CCCC[C@H]2O)ccc1-c1ccc2[nH]nc(N)c2c1C", 0.638),
    ("COc1c(-c2ccc(S(=O)(=O)N3CC(F)(F)C[C@H]3CO)cc2C)ccc2[nH]nc(N)c12", 1.79),
    ("Cc1cc(S(=O)(=O)N[C@H]2C[C@@](C)(O)C2)ccc1-c1ccc2[nH]nc(N)c2c1C", 0.988),
    ("Cc1cc(S(=O)(=O)N2CC[C@H](O)C2)ccc1-c1ccc2[nH]nc(N)c2c1C", 0.275),
]

###

target: recombinant human Jak1 (aa 866-1154) (Homo sapiens (Human)); assay: Kinase selectivity panel, substrate peptide phosphorylation (Caliper); assay type: biochemical; conditions: 45 uM ATP
Sequence (P23458 866-1154): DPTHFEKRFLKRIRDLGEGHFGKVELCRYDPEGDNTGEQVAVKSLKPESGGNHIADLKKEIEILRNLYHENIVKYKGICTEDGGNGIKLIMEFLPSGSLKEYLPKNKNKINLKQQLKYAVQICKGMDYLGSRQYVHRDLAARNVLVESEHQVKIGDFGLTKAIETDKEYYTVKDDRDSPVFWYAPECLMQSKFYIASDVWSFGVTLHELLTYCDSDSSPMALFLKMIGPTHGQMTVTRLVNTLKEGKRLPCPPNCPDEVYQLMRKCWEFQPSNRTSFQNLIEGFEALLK
readout name: IC50 (µM)

# molecule, assay system, readout name, assay value
records = [
    ("CC[C@@](C)(Nc1ccnc(-c2c[nH]c3ncccc23)n1)C(=O)NCC(F)(F)F [reference compound]", "recombinant human Jak1 (aa 866-1154) (Homo sapiens (Human))", "IC50", 0.02),
    ("Cc1cc(Nc2nc(N[C@@H](C)c3ncc(F)cn3)ncc2Cl)n[nH]1 [reference compound]", "recombinant human Jak1 (aa 866-1154) (Homo sapiens (Human))", "IC50", 0.0002),
]
